Values were extracted from paper PMC4119598.

system: P. berghei LS parasites; test: Immunofluorescence analysis; assay type: cell-based, Plasmodium berghei; settings: 10 μM, 48 h post-infection

{"columns": ["structure.string", "effect on size of LS parasites (IFA)"],
 "data": [
  ["COc1cc(C)c(C(=O)Oc2cc(C)c(C(=O)O)c(O)c2)c(O)c1", "no effect"],
  ["COc1cc(C(=O)O)c2c(c1C)OC(=O)c1c(C)cc(O)c(C=O)c1O2", "no effect"]
]}

###

Data export: IC50 values recorded with MtFabI (Mycobacterium tuberculosis).
Sequence (P9WGR1 whole entry, looked up): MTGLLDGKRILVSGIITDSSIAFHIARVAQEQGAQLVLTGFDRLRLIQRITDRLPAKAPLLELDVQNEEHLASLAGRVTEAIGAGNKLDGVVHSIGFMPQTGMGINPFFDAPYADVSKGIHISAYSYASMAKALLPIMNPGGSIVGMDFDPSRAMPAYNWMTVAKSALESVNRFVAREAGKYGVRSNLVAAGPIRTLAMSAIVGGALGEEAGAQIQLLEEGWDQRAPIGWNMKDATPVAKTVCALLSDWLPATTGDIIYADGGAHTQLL

{"columns": ["structure.string", "IC50"],
 "data": [
  ["COc1cc(C(=O)O)c2c(c1C)OC(=O)c1c(C)cc(O)c(C=O)c1O2", "> 200 µM"],
  ["COc1cc(C)c(C(=O)Oc2cc(C)c(C(=O)O)c(O)c2)c(O)c1", "> 200 µM"],
  ["COC(=O)/C(=C1/OC(=O)C(c2ccccc2)=C1O)c1ccccc1", "> 200 µM"]
]}
